B1: mRNA-splicing (parent)
chain: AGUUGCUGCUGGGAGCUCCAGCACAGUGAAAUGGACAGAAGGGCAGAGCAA

Variants of: B1
Assay: exon inclusion enrichment index; higher = more inclusion; WT1 exon 5 minigene, HEK293
Think of 2 as a floor: if exon inclusion enrichment index stands on it or above, it is met; beneath it, not met.

C6A U7C C9A U10C G12A G13U | not met
C6A U7C C9A U10C A35U C36G | not met
G5C C6U G8C C9U U10C G26U | met
G21C C22G | met
G5C C6G U7C U10C G46C | met
G5C C6A U7C G8A U10A G13A A14U | not met
G5A U7C G8A U10C G42C G43A | met
G5C C6A U7C G8A U10A A35G C36U | not met
G34U A35G | not met
C6A U7A C9A U10A A14U G15U | not met

Problem: Hello, I need to know if G5A U7C G8A U10C A23U has measured exon inclusion enrichment index not below 2. Thanks!
Solution: not met

Problem: Hello, I need to know if `G8C` has measured exon inclusion enrichment index not below 2. Thanks!
Solution: not met

Problem: Hello, I need to know if G5A C6U U7A G8U C9A U32A has measured exon inclusion enrichment index not below 2. Thanks!
Solution: not met

Problem: Hello, I need to know if C6A U7C C9A U10C A31C U32A has measured exon inclusion enrichment index not below 2. Thanks!
Solution: met
